# Tested system: human insulin receptor (IR-A) (Homo sapiens)
# Reported conditions: relative to affinity of human insulin; […] HSA in binding buffer
Starred links: 1 amine or outer side, 2 acyl side, 3 side chain; linkers in the order of their positions; H or OH if unused. Positions of bridges follow the written chain, without caps; N, C: chain ends. Groups on a side chain read outwards from the residue. Chains are numbered I, II in the order given. No end group written: not given here. *: point of attachment. Phe(Nα-CONH2) = NC(=O)N[C@@H](Cc1ccccc1)C(=O)*; C20 diacid = O=C(O)CCCCCCCCCCCCCCCCCCC(=O)*; C18 diacid = O=C(O)CCCCCCCCCCCCCCCCC(=O)*; C16 diacid = O=C(O)CCCCCCCCCCCCCCC(=O)*; NMe2Phe = CN(C)[C@@H](Cc1ccccc1)C(=O)*; γGlu = O=C(O)[C@H](CCC(=O)[*:2])N[*:1]; X1 = CCN(CC)[C@@H](Cc1ccccc1)C(=O)*; Hydantoyl = NC(=O)NCC(=O)*; AEEA = NCCOCCOCC(=O)O; Me2Gly = CN(C)CC(=O)*; X2 = CCN(CC)CC(=O)*
Result type: Relative IR-A affinity (@ […] HSA) (%)e
API: value field is a number in %; no unit string.

Answer with reported Relative IR-A affinity (@ […] HSA) (%)e of I: NMe2Phe-VNQHLCGSHLVEALYLVCGERGFHYPK([γGlu-C18 diacid]) / II: Me2Gly-IVEQCCTSICSLEQLENYCN (disulfide I:6-II:6, I:18-II:19, II:5-II:10) [Example 4]
0.03

Answer with reported Relative IR-A affinity (@ […] HSA) (%)e of I: X1-VNQHLCGSHLVEALYLVCGERGFHYTPK([AEEA-AEEA-γGlu-C18 diacid]) / II: X2-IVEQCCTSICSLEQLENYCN (disulfide I:6-II:6, I:18-II:19, II:5-II:10) [Example 2]
0.05

Answer with reported Relative IR-A affinity (@ […] HSA) (%)e of I: {Phe(Nα-CONH2)}-VNQHLCGSHLVEALYLVCGERGFFYPK([AEEA-AEEA-γGlu-C16 diacid]) / II: Hydantoyl-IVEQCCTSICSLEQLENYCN (disulfide I:6-II:6, I:18-II:19, II:5-II:10) [Example 20]
0.48

Answer with reported Relative IR-A affinity (@ […] HSA) (%)e of I: {Phe(Nα-CONH2)}-VNQHLCGSHLVEALYLVCGERGFHYTPK([AEEA-AEEA-γGlu-C20 diacid]) / II: Hydantoyl-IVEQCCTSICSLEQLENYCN (disulfide I:6-II:6, I:18-II:19, II:5-II:10) [Example 15]
0.02

Answer with reported Relative IR-A affinity (@ […] HSA) (%)e of I: NMe2Phe-VNQHLCGSHLVEALYLVCGERGFHYPK([γGlu-C16 diacid]) / II: Me2Gly-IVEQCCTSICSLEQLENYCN (disulfide I:6-II:6, I:18-II:19, II:5-II:10) [Example 8]
0.18

Answer with reported Relative IR-A affinity (@ […] HSA) (%)e of I: {Phe(Nα-CONH2)}-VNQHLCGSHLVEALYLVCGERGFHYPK([AEEA-AEEA-γGlu-C18 diacid]) / II: Hydantoyl-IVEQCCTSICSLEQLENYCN (disulfide I:6-II:6, I:18-II:19, II:5-II:10) [Example 18]
0.04

###

# Tested system: human insulin receptor (IR-A) (Homo sapiens, UniProt P06213)
# Sequence (P06213 28-746 isoform P06213-2 limits assumed): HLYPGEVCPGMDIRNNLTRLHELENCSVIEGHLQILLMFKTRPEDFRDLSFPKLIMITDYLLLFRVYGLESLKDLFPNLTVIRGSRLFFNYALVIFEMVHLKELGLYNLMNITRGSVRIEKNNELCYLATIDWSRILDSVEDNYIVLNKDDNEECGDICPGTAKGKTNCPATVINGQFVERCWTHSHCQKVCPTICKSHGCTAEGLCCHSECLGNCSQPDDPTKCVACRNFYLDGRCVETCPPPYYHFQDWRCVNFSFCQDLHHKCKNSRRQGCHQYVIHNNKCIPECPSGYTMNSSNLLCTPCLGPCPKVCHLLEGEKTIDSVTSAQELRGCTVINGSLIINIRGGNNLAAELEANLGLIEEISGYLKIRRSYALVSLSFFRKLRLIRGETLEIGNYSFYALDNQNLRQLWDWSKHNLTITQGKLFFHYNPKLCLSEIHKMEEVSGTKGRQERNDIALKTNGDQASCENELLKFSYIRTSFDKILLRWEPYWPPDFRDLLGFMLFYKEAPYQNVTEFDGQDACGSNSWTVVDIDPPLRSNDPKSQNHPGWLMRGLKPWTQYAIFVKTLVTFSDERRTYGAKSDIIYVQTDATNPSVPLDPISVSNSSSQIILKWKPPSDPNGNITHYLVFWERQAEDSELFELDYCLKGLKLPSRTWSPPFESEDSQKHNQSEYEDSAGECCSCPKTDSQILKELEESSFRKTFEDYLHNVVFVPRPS
# Sequence (P06213 763-1382 partner limits assumed): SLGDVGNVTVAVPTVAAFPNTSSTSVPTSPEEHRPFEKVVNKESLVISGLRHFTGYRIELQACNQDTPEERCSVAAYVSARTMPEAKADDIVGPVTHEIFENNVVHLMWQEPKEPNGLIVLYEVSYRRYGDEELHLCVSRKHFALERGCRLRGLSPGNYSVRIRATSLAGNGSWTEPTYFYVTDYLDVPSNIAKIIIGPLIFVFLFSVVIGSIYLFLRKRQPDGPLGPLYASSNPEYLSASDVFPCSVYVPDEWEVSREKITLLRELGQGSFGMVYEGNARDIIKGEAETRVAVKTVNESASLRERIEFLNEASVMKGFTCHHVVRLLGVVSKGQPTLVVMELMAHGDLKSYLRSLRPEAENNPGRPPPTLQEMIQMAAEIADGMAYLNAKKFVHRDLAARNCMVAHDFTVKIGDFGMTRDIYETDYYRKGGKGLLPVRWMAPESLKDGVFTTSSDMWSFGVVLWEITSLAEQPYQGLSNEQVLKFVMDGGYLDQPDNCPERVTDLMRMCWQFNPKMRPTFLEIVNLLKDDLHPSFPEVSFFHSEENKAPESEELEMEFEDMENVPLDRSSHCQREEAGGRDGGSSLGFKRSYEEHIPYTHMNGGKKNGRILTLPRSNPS
# Reported conditions: relative to affinity of human insulin; […] HSA in binding buffer
Starred links: 1 amine or outer side, 2 acyl side, 3 side chain; linkers in the order of their positions; H or OH if unused. Positions of bridges follow the written chain, without caps; N, C: chain ends. Groups on a side chain read outwards from the residue. Chains are numbered I, II in the order given. No end group written: not given here. *: point of attachment. Phe(Nα-CONH2) = NC(=O)N[C@@H](Cc1ccccc1)C(=O)*; C20 diacid = O=C(O)CCCCCCCCCCCCCCCCCCC(=O)*; C18 diacid = O=C(O)CCCCCCCCCCCCCCCCC(=O)*; C16 diacid = O=C(O)CCCCCCCCCCCCCCC(=O)*; NMe2Phe = CN(C)[C@@H](Cc1ccccc1)C(=O)*; γGlu = O=C(O)[C@H](CCC(=O)[*:2])N[*:1]; Hydantoyl = NC(=O)NCC(=O)*; AEEA = NCCOCCOCC(=O)O; Me2Gly = CN(C)CC(=O)*
Result type: Relative IR-A affinity (@ […] HSA) (%)e
API: value field is a number in %; no unit string.

State Relative IR-A affinity (@ […] HSA) (%)e on human insulin receptor (IR-A) (Homo sapiens, UniProt P06213). Entry: I: {Phe(Nα-CONH2)}-VNQHLCGSHLVEALHLVCGERGFHYTPK([AEEA-AEEA-γGlu-C20 diacid]) / II: Hydantoyl-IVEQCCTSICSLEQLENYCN (disulfide I:6-II:6, I:18-II:19, II:5-II:10) [Example 16]
0.01

State Relative IR-A affinity (@ […] HSA) (%)e on human insulin receptor (IR-A) (Homo sapiens, UniProt P06213). Entry: I: {Phe(Nα-CONH2)}-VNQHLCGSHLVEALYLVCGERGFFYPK([γGlu-C20 diacid]) / II: Hydantoyl-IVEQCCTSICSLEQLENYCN (disulfide I:6-II:6, I:18-II:19, II:5-II:10) [Example 21]
0.07

State Relative IR-A affinity (@ […] HSA) (%)e on human insulin receptor (IR-A) (Homo sapiens, UniProt P06213). Entry: I: NMe2Phe-VNQHLCGSHLVEALHLVCGERGFHYTPK([γGlu-C16 diacid]) / II: Me2Gly-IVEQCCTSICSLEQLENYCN (disulfide I:6-II:6, I:18-II:19, II:5-II:10) [Example 3]
0.06

State Relative IR-A affinity (@ […] HSA) (%)e on human insulin receptor (IR-A) (Homo sapiens, UniProt P06213). Entry: I: {Phe(Nα-CONH2)}-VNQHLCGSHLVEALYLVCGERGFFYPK([γGlu-C18 diacid]) / II: Hydantoyl-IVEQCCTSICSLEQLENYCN (disulfide I:6-II:6, I:18-II:19, II:5-II:10) [Example 23]
0.04
